# assayed-system: T1, human IL-13 wild type (human, UniProt P35225 35-146)
# T1 construct: also called h IL-13; h IL-13 wt
# T1 sequence (P35225 other isoform, or with tags, fused parts or gaps limits assumed): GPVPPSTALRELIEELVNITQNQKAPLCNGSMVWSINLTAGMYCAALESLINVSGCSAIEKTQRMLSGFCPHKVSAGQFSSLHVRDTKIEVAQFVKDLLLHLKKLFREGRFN
# test: SPR (Biacore), mAb captured, IL-13 as analyte

{"binder": "21D9 (antibody, V domains shown) VH: QVQLQQSGDDLVKPGASVKLSCKASGYTFTSYWINWIKQRPGQGLEWIGHIAPGSGETYDNEMFKDKAKLTVDTSSNTAYIHLSSLSSEDSAVYFCARGSFTFFYAMDYWGQGTSVTVSS VL: DVLMTQTPLSLPVSLGDQASISCRSSQNIVHSNGKTYLEWYLQRPGQSPKLLIYKVSNRFSGVPDRFSGSGSGTDFTLKISRVEAEDLGVYYCFQGSHVPYTFGGGTKLEIKR", "koff (s⁻¹)": "6.58e-05"}
{"binder": "5F1 (antibody, V domains shown) VH: QVQLQQSGAELARPGTSVKLSCKASGYTFTTYGISWVKQRTGQGLEWIGEIYPGSYNTYYNEKFRGKATLTADKSSSTAYMQLSSLTSEDSAVYFCSRWRTSYFSDYGYFDYWGQGTTLTVSS VL: DVVMTQTPLSLPVSLGDQASISCRSSQSLVHSHGNTYLHWYLQKPGQSPKLLIYTVSNRFSGVPDRFSGSGSGTDFTLKISRVEAEDLGVYFCSQSTHVPYTFGGGTKLEIKR", "koff (s⁻¹)": "2.24e-05"}
